target: PPAR-α (Homo sapiens, UniProt Q07869); construct: expressed in transfected cells; host or cells: CV-1 (African green monkey kidney); assay: PPAR-α reporter assay (GAL4 luciferase, CV-1 cells); type: cell-based; details: induction ratio of luciferase activity at 50 μM, activity without tested compound = 1, hGR-GAL4-hPPAR-α
Sequence (Q07869 167-468): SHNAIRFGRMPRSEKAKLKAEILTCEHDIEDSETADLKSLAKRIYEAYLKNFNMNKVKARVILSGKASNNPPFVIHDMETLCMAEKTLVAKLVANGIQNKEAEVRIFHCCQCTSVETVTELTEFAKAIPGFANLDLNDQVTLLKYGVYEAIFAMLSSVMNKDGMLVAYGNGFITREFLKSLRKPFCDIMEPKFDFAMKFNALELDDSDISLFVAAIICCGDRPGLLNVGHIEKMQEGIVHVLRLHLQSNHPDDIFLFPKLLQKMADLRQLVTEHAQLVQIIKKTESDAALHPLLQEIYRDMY
experimentalReadout: PPAR-α induction ratio
The response must contain the number and no unit.

molecule: CCCCCCCCCCCC(=O)N[C@H](C(=O)NC1CCCCC1)C(C)C (racemic) [Example 23, N-lauroyl-L-valine cyclohexylamide]
experimentalResult: 63.0
--
molecule: CCCCCCCCCCCCNC(=O)C(NC(=O)CCCCCCCCCCC)C(C)C (racemic)
experimentalResult: 44.0

Prompt: # lookup: PPAR-α (Homo sapiens, UniProt Q07869) PPAR-α induction ratio, key = CCCCCCCCCCCC(=O)NC(C(=O)O)C(C(F)(F)F)C(F)(F)F (racemic)
Response: 2.3

Prompt: # lookup: PPAR-α (Homo sapiens, UniProt Q07869) PPAR-α induction ratio, key = CCCCCCCCCCCC(=O)NC(C)(CC)C(=O)O (racemic)
Response: 23.0

Prompt: # lookup: PPAR-α (Homo sapiens, UniProt Q07869) PPAR-α induction ratio, key = CCCCCCCCCCCC(=O)N(CC)[C@H](C(=O)O)C(C)C
Response: 46.0

----------
biological target: PPAR-α (Homo sapiens, UniProt Q07869); construct: expressed in transfected cells; host or cells: CV-1 (African green monkey kidney); test: PPAR-α reporter assay (GAL4 luciferase, CV-1 cells); type: cell-based; conditions: induction ratio of luciferase activity at 50 μM, activity without tested compound = 1, hGR-GAL4-hPPAR-α
experimentalReadout: PPAR-α induction ratio
The response must contain the number and no unit.

Recorded PPAR-α induction ratio, per entry:
compound: CCCCCCCCCCCC(=O)N[C@H](C(=O)O)C(C)C
PPAR-α induction ratio: 52.0
//
compound: CCCCCCCC(=O)N[C@H](C(=O)O)C(C)C
PPAR-α induction ratio: 1.5

Prompt: # lookup: PPAR-α (Homo sapiens, UniProt Q07869) PPAR-α induction ratio, key = CCCCCCCCCCCC(=O)NC(C)C(=O)O (racemic)
Response: 25.0

Prompt: # lookup: PPAR-α (Homo sapiens, UniProt Q07869) PPAR-α induction ratio, key = CCCCCCCCCCCCCCCCCC(=O)N[C@H](C(=O)O)C(C)C
Response: 15.0

Prompt: # lookup: PPAR-α (Homo sapiens, UniProt Q07869) PPAR-α induction ratio, key = CCCCCCCCCCCC(=O)NC(C)(Cc1ccccc1)C(=O)O (racemic)
Response: 7.3

Prompt: # lookup: PPAR-α (Homo sapiens, UniProt Q07869) PPAR-α induction ratio, key = C=CCCCCCCCCC(=O)N[C@@H](CC(C)C)C(=O)O
Response: 2.7

Prompt: # lookup: PPAR-α (Homo sapiens, UniProt Q07869) PPAR-α induction ratio, key = CCCCCCCCCC(=O)N[C@H](C(=O)O)C(C)(C)C
Response: 31.5

Prompt: # lookup: PPAR-α (Homo sapiens, UniProt Q07869) PPAR-α induction ratio, key = CCCCCCCCC(=O)N[C@H](C(=O)O)[C@@H](C)CC
Response: 2.1
